# EXPERIMENT NOTES: qHTS for differential inhibitors of proliferation of Plasmodium falciparum line HB3 (AID 1886);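 also: parasites grown with compound for 72 h before SYBR Green readout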
# ASSAY SETUP: Plasmodium falciparum HB3 proliferation inhibition; series mostly up to 28.7 µM
Inconclusive results are not listed. Activity calls are given as the source filed them. Calls follow the shape of the dose curve; as a rule, active = well fitted curve in the direction sought with a large enough effect; inconclusive = small, poorly fitted or top-dose-only effect, or another doubt; inactive = no such curve, though single readings can be large or run the other way.
Select the matching outcome among active, inactive

Solved cases (6 shown):
# COMPOUND, CLASS LABEL
measured = [
    ("CCOC(=O)c1ncn2c1[C@@H]1CCCN1C(=O)c1cc(OC)ccc1-2", "inactive"),
    ("COc1ccc2[nH]c3c(c2c1)CCNC3", "inactive"),
    ("C[Se]C[C@H](N)C(=O)O", "inactive"),
    ("CCN(CC)c1ncnc2c1ncn2[C@@H]1O[C@H](COP(=O)(O)OP(=O)(O)C(Br)(Br)P(=O)(O)O)[C@@H](O)[C@H]1O", "inactive"),
    ("CC(C)(C)c1o[nH]c(=O)c1CC(N)C(=O)O (configuration not stated)", "inactive"),
    ("CCCN(CCC)[C@@H]1CCc2cccc(O)c2C1", "active"),
]

Write down the call the test reported for this compound. Item: Cc1[nH]c2ccc(O)cc2c1CCN
inactive

----------
# STUDY TARGET: Thioredoxin reductase 1, cytoplasmic (Rattus norvegicus) (UniProt O89049)
# Sequence (O89049 whole entry, looked up): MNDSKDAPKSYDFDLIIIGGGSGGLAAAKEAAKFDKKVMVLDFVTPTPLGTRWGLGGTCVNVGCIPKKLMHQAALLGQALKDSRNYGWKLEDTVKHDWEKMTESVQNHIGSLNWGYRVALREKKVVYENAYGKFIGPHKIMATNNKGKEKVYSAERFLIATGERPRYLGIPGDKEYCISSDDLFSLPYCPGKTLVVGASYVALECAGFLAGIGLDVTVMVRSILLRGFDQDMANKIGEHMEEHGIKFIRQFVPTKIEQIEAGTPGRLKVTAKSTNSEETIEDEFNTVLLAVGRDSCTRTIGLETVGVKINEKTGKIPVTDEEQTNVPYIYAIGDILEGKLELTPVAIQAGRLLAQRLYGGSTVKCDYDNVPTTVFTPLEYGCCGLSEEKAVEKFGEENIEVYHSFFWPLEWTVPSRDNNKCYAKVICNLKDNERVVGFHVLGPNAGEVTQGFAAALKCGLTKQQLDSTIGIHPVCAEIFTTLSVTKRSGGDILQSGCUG
# EXPERIMENT NOTES: qHTS Assay for Inhibitors of Mammalian Selenoprotein Thioredoxin Reductase 1 (TrxR1) (AID 488773); also: nearly all actives have a fitted effect of over 40% in size
# ASSAY SETUP: purified TrxR1 enzyme activity; inhibition; series mostly up to 57.1 µM
# Excerpt: The selenoprotein thioredoxin reductase (TrxR; EC 1.8.1.9) is a FAD containing homodimeric pyridine nucleotide-disulfide oxidoreductase with many cellular roles. Together with NADPH and its prime substrate thioredoxin (Trx), the enzyme forms the core of the Trx system. […] This BioAssay is a validation of an NADPH fluorescence-based, dual-purpose qHTS rTrxR1 assay designed to find potential inhibitors and substrates of rTrxR1. […]
Results filed as inconclusive are left out. The source made the active and inactive calls. Calls come from the whole dose curve; as a rule, active = well fitted inhibition curve with a large enough effect; inconclusive = small, poorly fitted or top-dose-only effect; inactive = no such curve, though single readings can be large or run the other way.
Your reply should match one of these outcome classes. active, inactive

# MOLECULE, CLASS LABEL
data = [
    ("c1ccc2cc(CC3=NCCN3)ccc2c1", "inactive"),
    ("C#CCN[C@H](C)Cc1ccccc1", "inactive"),
    ("O=C1CC[C@@]2(O)C3Cc4ccc(O)c5c4C2(CCN3CC2CC2)[C@H]1O5 (stereo partly drawn)", "inactive"),
    ("O=S1(=O)N(CCN2CC=C(c3c[nH]c4cc(F)ccc34)CC2)c2cccc3c2N1CCC3", "inactive"),
]

Test call for this molecule, please: CC(N)Cc1c[nH]c2ccc(O)cc12 (stereo not drawn)
inactive

What call does the record list for N[C@@H](CCl)C(=O)O ?
inactive

Lab log entry: O=C(O)c1cc[c]([Hg][Cl])cc1 — outcome as called in the assay?
active

// return assay outcome for COc1ccc2c(c1)[C@@]13CCCC[C@H]1[C@@H](C2)NCC3
inactive

Dear all, I need the recorded test outcome for Clc1cc(I)cc(Cl)c1NC1=NCCN1 , thank you.
inactive

Query: recorded result category for CN(N=O)c1cc(O)ccc1O in this test
active

Call for entry C[Se]C[C@H](N)C(=O)O :
inactive

// param item: C/C(O)=C(\C#N)C(=O)Nc1cc(Br)ccc1Br ; yields the recorded call
inactive

// param item: NCCCP(=O)(O)O ; yields the recorded call
inactive

----------
# Test system: Zika virus NS2B-NS3 protease (unlinked)
# EXPERIMENT NOTES: Optimization of GU AMC qHTS for Zika virus inhibitors: Unlinked NS2B-NS3 protease assay (AID 1347151); also: nearly all actives have a fitted effect of over 80% in size; also: potency is read from the fitted curve at half-maximal effect
# ASSAY SETUP: recombinant ZIKV NS2B-NS3 protease, fluorogenic AMC substrate; series mostly up to 52.5 µM
# Excerpt: Avindra Nath, Ph.D., National Institute of Neurological Disorders and Stroke (NINDS), Bethesda, MD Radhakrishnan Padmanabhan, Ph.D., Georgetown University (GU), Washington D.C. Zika Virus causes congenital defects, including microcephaly and is associated with Guillain-Barre syndrome, eningoencephalitis and myelitis in infected adult. […]
Results filed as inconclusive are left out. The source made the active and inactive calls. The call rests on the fitted dose curve; in most records, active means well fitted inhibition curve with a large enough effect; inconclusive means small, poorly fitted or top-dose-only effect; inactive means no such curve, though single readings can be large or run the other way.
ENDPOINT NAME: Potency

# MOLECULE, STUDY TARGET, Potency
measured = [
    ("CCCN(CCC)C1CCc2cccc(O)c2C1 (centres undefined)", "Zika virus NS2B-NS3 protease (unlinked)", "inactive"),
    ("COc1ccc2[nH]c3c(c2c1)CCNC3", "Zika virus NS2B-NS3 protease (unlinked)", "26.7 µM (active)"),
    ("CC(C)(C)c1cc(C=C(C#N)C#N)cc(C(C)(C)C)c1O", "Zika virus NS2B-NS3 protease (unlinked)", "10.6 µM (active)"),
    ("Nc1cc2c(ncn2CCOCP(=O)(O)O)c(=O)[nH]1", "Zika virus NS2B-NS3 protease (unlinked)", "inactive"),
    ("CC1(C(=O)O)C2CCC(O2)C1(C)C(=O)O (centres undefined)", "Zika virus NS2B-NS3 protease (unlinked)", "inactive"),
]

Note Potency for the molecule shown: CC(=O)OCC1=C(C(=O)O)N2C(=O)[C@@H](NC(=O)CCC[C@@H](N)C(=O)O)[C@H]2SC1
inactive

Name the recorded Potency of the item CCCN1CCC[C@@H](c2cccc(O)c2)C1 in your answer.
inactive

Respond only with Potency recorded for CCS(=O)(=O)Nc1cccc(C(=C2CCCCC2)c2cnc[nH]2)c1
inactive

Report Potency, nothing else, for this molecule: C[C@H](N)Cc1cccc(C(F)(F)F)c1
inactive

Note Potency for the molecule shown: NC(Cc1cc(O)c(O)cc1O)C(=O)O (centres undefined)
7.52 µM (active)

Could you please provide reported Potency for C=CCN1CCC23c4c5ccc(O)c4O[C@H]2C(=O)CC[C@@]3(O)C1C5 (some centres undefined) ? Thanks!
inactive

For the molecule NC(=O)c1cc(N2CC2)c([N+](=O)[O-])cc1[N+](=O)[O-] , give its reported Potency.
inactive

Consider the molecule CN1CC[C@@]2(C)c3cc(OC(=O)Nc4ccccc4)ccc3N(C)[C@@H]12 and give its recorded Potency.
inactive

----------
# STUDY TARGET: Nucleoprotein (Lymphocytic choriomeningitis virus (strain Armstrong)) (UniProt P09992)
# Sequence (P09992 whole entry, looked up): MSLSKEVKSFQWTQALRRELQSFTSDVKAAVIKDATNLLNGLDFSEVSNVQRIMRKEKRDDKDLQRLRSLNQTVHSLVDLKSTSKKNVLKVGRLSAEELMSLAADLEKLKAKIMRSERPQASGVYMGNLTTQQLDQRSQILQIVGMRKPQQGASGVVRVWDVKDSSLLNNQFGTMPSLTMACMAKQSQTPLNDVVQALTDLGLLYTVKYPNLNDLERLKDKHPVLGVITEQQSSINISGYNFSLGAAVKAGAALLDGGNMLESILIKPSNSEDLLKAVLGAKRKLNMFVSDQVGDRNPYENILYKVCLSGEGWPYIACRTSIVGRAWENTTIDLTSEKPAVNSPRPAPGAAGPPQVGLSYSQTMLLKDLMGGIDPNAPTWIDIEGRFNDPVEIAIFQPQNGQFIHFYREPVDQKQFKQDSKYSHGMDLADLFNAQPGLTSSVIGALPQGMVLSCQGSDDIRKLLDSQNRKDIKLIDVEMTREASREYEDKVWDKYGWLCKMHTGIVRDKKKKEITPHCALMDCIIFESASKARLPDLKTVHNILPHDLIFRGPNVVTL
# EXPERIMENT NOTES: qHTS for Inhibitors of the Functional Ribonucleoprotein Complex (vRNP) of Lymphocytic Choriomeningitis Arenaviruses (LCMV): LCMV Primary Screen - GLuc reporter signal (AID 1347086); also: % is scaled to controls: 0 for no effect and ±100 for the full control effect; nearly all actives have a fitted effect of over 70% in size
# ASSAY SETUP: LCMV minigenome vRNP cell assay, Gaussia luciferase reporter; series mostly up to 57.5 µM
Records with an inconclusive call do not appear. Activity calls are given as the source filed them. Calls follow the shape of the full dose curve.

# MOLECULE, outcome
records = [
    ("CO[C@H]1CC=C2CCN3CCC4=C(CC(=O)OC4)[C@]23C1", "inactive"),
    ("NCCCP(=O)(O)O", "inactive"),
    ("CC(C)(O)[C@@H]1C2OC(=O)[C@@H]1[C@]1(O)C[C@H]3O[C@]34C(=O)O[C@H]2[C@]14C (tested in a mixture with another compound)", "inactive"),
    ("NC(N)=Nc1ccc2[nH]c3c(c2c1)C[C@@]1(O)[C@H]2Cc4ccc(O)c5c4[C@@]1(CCN2CC1CC1)[C@H]3O5", "inactive"),
]

----------
# EXPERIMENT NOTES: qHTS Assay for Identifying Gametocytocidal Compounds (AID 743244);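 also: % is scaled to controls: 0 for no effect and ±100 for the full control effect; actives lower the fluorescent signal which means gametocytes are killed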
# ASSAY SETUP: P. falciparum 3D7 stage III-V gametocytes, alamarBlue, 72 h; active compounds read low
Records with an inconclusive call do not appear. The source made the active and inactive calls. Calls come from the whole dose curve; as a rule, active = well fitted curve in the direction sought with a large enough effect; inconclusive = small, poorly fitted or top-dose-only effect, or another doubt; inactive = no such curve, though single readings can be large or run the other way.
Let's look at some compounds and their measured max response.

Record excerpt, results attached:
# COMPOUND, REPORTED VALUE
rows = [
    ("ClC=C(Cl)Cl", "-0.112% (inactive)"),
    ("[O]=[Cd]", "2.29% (inactive)"),
    ("COc1ccc2c(c1)c(CCN1CCOCC1)c(C)n2C(=O)c1cccc(Cl)c1Cl", "23.8% (inactive)"),
    ("N[C@@H](Cn1ccc(=O)[nH]c1=O)C(=O)O", "15.1% (inactive)"),
    ("c1csc(C2(N3CCCCC3)CCCCC2)c1", "-3.82% (inactive)"),
    ("C[Se]C[C@H](N)C(=O)O", "-6.02% (inactive)"),
]

Kindly indicate its recorded max response. Item: CC[C@H]1[C@@H]2C[C@H]3[C@@H]4N(C)c5ccccc5[C@]45C[C@@H](C2[C@H]5O)N3[C@@H]1O (some centres undefined)
7.56% (inactive)

Annotate the compound CP(=O)(O)C1=CCNCC1 with its measured max response.
6.19% (inactive)

----------
# EXPERIMENT NOTES: qHTS assay to identify small molecules that stimulate interleukin-8 (IL-8) secretion (AID 651758); also: 0% is about no effect
# ASSAY SETUP: HTRF ratio (665/615); series mostly up to 92.2 µM
Results filed as inconclusive are left out. The source made the active and inactive calls. Calls follow the shape of the dose curve; as a rule, active = well fitted activation curve with a large enough effect in the signal ratio; inconclusive = small, poorly fitted or top-dose-only effect, or effect the other way, or a change in a side signal; inactive = flat fitted curve, though single readings scatter; the % refers to the signal ratio.
ENDPOINT NAME: outcome

Look over these answered cases.
# COMPOUND, outcome
data = [
    ("CCOC(=O)c1ccccc1C(=O)OCC", "inactive"),
    ("COc1ccc2c(c1OC)C(=O)OC2C1c2cc3c(cc2CCN1C)OCO3 (stereo unspecified)", "inactive"),
    ("O=C(O)C(Cl)(Cl)Cl", "inactive"),
    ("ClC(Cl)(Cl)Cl", "inactive"),
    ("[O]=[Cr](=[O])([OH])[O][Cr](=[O])(=[O])[OH]", "inactive"),
]

Recall and state the measured outcome for ClCC1CO1 (stereo unspecified) .
inactive

Reference source: PubChem BioAssay (NCATS)
